Attribute: EC50
target: T1, human CLDN9 (UniProt O95484 1-217)
T1 chain: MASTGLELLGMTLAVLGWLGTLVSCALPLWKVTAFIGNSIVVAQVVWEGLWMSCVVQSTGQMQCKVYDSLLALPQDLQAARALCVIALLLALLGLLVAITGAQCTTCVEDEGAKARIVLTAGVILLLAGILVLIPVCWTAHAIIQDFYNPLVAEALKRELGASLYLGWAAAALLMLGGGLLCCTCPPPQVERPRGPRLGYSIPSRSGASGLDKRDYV
protocolSummary: HEK293E cell binding; avid
Give just the number in µg/mL; leave the unit off.

Request: Any idea what its EC50 is? The binder is XENP34218, humanized C6-30 H1L1 bivalent mAb (antibody, V domains shown) VH: QVQLVQSGAEVKKPGASVKVSCKTSGYTFTEYTMHWVRQAPGQSLEWMGGIDPNNGNTHYNQKFQGRVTITVDKSASTAYMELSSLRSEDTAVYYCARIYYFGRLYFDFWGAGTLVTVSS VL: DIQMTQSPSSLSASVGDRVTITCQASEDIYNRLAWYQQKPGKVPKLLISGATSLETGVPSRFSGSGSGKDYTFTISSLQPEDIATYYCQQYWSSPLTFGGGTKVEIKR
Response: 54.2

Request: What does the record list as EC50 for XENP35062 H2_L1.19 (antibody, V domains shown) VH: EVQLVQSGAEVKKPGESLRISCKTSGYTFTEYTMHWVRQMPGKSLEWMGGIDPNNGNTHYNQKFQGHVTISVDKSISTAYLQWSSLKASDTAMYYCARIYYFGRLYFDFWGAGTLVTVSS VL: DIQMTQSPSSLSASVGDRVTITCQASEDIYNRLAWYQQKPGKVPKLLISGASSLETGVPSRFSGSGSGKDYTFTISSLQPEDIATYYCQQYWSSPLTFGGGTKVEIKR ?
Response: 86.8
